Hi there, I'd appreciate the recorded TGI for every entry that follows.
Tested on: HT29 colon
protocol-summary: NCI tumour cell line growth inhibition, 48 h

{"compound": "COc1cc(/C=C/C(=O)c2ccc(Nc3ncnc4ccccc34)cc2)cc(OC)c1", "system-tested": "HT29 colon", "observed-value": "4.05 µM"}
{"compound": "CCOC(=O)C1CCn2c(nc3c2c(=O)n(C)c(=O)n3C)S1 (stereo not given)", "system-tested": "HT29 colon", "observed-value": "> 100 µM"}
{"compound": "CC(=O)N(C)c1ccc2c(ccc[n+]2[O-])c1[N+](=O)[O-]", "system-tested": "HT29 colon", "observed-value": "> 100 µM"}

The following compounds each have a reported value; give each one's TGI.
1. OCC1OC(Oc2cc(O)cc(/C=C\c3ccc(O)cc3)c2)C(O)C(O)C1O (stereo not given)
2. Cc1cc2c(c(C=Nc3ccc([N+](=O)[O-])cc3)c1)OC1(C=C2)Oc2ccccc2C(=O)N1C (stereo not given)
3. COc1ccc(C(c2ccc(C(C)C)cc(=O)c2O)c2ccc3cccnc3c2O)cc1 (stereo not given)

Reply |
1: > 100 µM; 2: 36.3 µM; 3: 20.2 µM

Please look at the items below and tell me TGI for each one, in order.
1. N=C1N(c2ccccc2)C(=O)C23CCCC2C13N1CCOCC1 (stereo not given)
2. CC(=O)Nc1ccc(C(=O)NN2C(=O)C(Cl)C2c2cc(Br)ccc2O)cc1 (stereo not given)

Reply |
> 100 µM
> 100 µM

State recorded TGI for all listed compounds.
1. CCOC(=O)C(NC(=O)c1ccccc1)(Nc1ccc(S(=O)(=O)Nc2nc(C)cc(C)n2)cc1)C(F)(F)F (stereo not given)
2. N#CC1=C(S)N(C2OC(CO)C(O)C(O)C2O)C(c2ccccc2)=CC1c1ccccc1 (stereo not given)

Reply |
1. > 100 µM
2. > 100 µM
